Source: ChEMBL document CHEMBL1201862

tested on: NCI-H460; test: NCI tumour cell line growth inhibition, 48 h
The source made the active and inactive calls. No stated cut-off is given here; in the data, active = GI50 up to about 1.1 µM and inactive = higher.
The reply should name one outcome from 1 (active), -1 (inactive)

Some solved entries appear below for comparison.
- MOLECULE: "CN1C(=O)C(CC(=O)O)NC1=S (centres undefined)"
  DISCRETE_LABEL: -1
- MOLECULE: "COc1cccc2c1C(=O)c1c(O)c3c(c(O)c1C2=O)CC(O)(C(C)=O)CC3OC1OC(COC(C)=O)C(OC(C)=O)C(OC(C)=O)C1OC(C)=O (centres undefined)"
  DISCRETE_LABEL: -1
- MOLECULE: "CC1=C(N2CC2)C(=O)c2nc3n(c2C1=O)CCC3O (centres undefined)"
  DISCRETE_LABEL: 1

Turning now to a further molecule:
Query: recorded result category for COc1ccc2cc(C(=O)c3ccccc3C(=O)O)ccc2c1 in this test
-1

* * *

The following molecules are shown together with reported GI50 values.
system: SK-OV-3; assay: NCI tumour cell line growth inhibition, 48 h
Active and inactive are the calls of the source. Rule as the data show it: active = GI50 up to about 1.1 µM and inactive = higher.

Reference set (4 entries):
- SMILES_INPUT: "O[C@@]12Cc3c([nH]c4ccccc34)[C@@H]3Oc4c(-c5ccccc5)ccc5c4[C@@]31CCN(CC1CC1)[C@@H]2C5"
  TARGET_DESC: "SK-OV-3"
  GI50: "2.95 µM (inactive)"
- SMILES_INPUT: "O=C(Nc1cccc(Cc2cccc(NC(=O)c3ccccc3)c2)c1)c1ccccc1"
  TARGET_DESC: "SK-OV-3"
  GI50: "25.8 µM (inactive)"
- SMILES_INPUT: "Clc1ccc(/C=C/c2nc3ccccc3s2)cc1Cl"
  TARGET_DESC: "SK-OV-3"
  GI50: "50.1 µM (inactive)"
- SMILES_INPUT: "O=C(O)c1ccccc1NC(=O)C1CCCCC1"
  TARGET_DESC: "SK-OV-3"
  GI50: "> 100 µM (inactive)"

# evaluate next
Any idea what GI50 was measured for O=C(Nc1cccc2ccccc12)c1cc2ccccc2oc1=O ?
30.2 µM (inactive)

* * *

system: SF-268; assay: NCI tumour cell line growth inhibition, 48 h
Activity calls are given as the source filed them. No stated cut-off is given here; in the data, active = GI50 up to about 1.1 µM and inactive = higher.
OBSERVATION_TYPE: GI50

Reference set (5 entries):
- COMPOUND: "C[C@H](CCC(=O)O)[C@H]1CC[C@@]2(C)[C@@H]3C(=O)C[C@H]4C(C)(C)[C@@H](O)CC[C@]4(C)[C@H]3C(=O)C[C@]12C"
  OBSERVATION_TYPE: "GI50"
  TEST_RESULT: "> 100 µM (inactive)"
- COMPOUND: "O=S(=O)(O)C(O)/C=C/c1ccccc1 (stereo not given)"
  OBSERVATION_TYPE: "GI50"
  TEST_RESULT: "> 100 µM (inactive)"
- COMPOUND: "O=[N+]([O-])c1ccc(/C=C/c2csnn2)cc1"
  OBSERVATION_TYPE: "GI50"
  TEST_RESULT: "> 100 µM (inactive)"
- COMPOUND: "CN(C)c1ccc(/C=C2\\CNC/C(=C\\c3ccc(N(C)C)cc3)C2=O)cc1"
  OBSERVATION_TYPE: "GI50"
  TEST_RESULT: "> 10 µM (inactive)"
- COMPOUND: "N#Cc1nc(-c2ccccn2)c(-c2ccccn2)nc1C#N"
  OBSERVATION_TYPE: "GI50"
  TEST_RESULT: "1.25 µM (inactive)"

Any idea what GI50 was measured for COc1cc(N(Cc2ccc3nc(OC)c(OC)nc3c2)Cc2ccc3nc(OC)c(OC)nc3c2)cc(OC)c1OC ?
32.1 µM (inactive)

Any idea what GI50 was measured for C#Cc1cccc(NC(=O)/C=C\C(=O)O)c1 ?
> 100 µM (inactive)

Any idea what GI50 was measured for COc1ccc(-c2ccc(C(=O)C=P(c3ccccc3)(c3ccccc3)c3ccccc3)cc2)cc1 ?
24.3 µM (inactive)

Any idea what GI50 was measured for CCCC[C@@H](C)/C=C1\CN2CCC[C@H]2[C@@](C)(O)[C@@H]1O ?
44.7 µM (inactive)

Any idea what GI50 was measured for O=C1O[C@H](COC(=O)c2ccccc2)[C@@H](OC(=O)c2ccccc2)C=C1OC(=O)c1ccccc1 ?
18.3 µM (inactive)
